System: CCRIS mutagenicity, Ames/micronucleus/aberration tests
test-summary: CCRIS mutagenicity studies
measurement-setup: Test System: MOUSE LYMPHOMA; Strain/Indicator: L5178Y (TK+/TK-); Metabolic Activation: NONE; Method: SUSPENSION/PLATE
The source made the active and inactive calls. How the calls were made is not given here.
Classes used: label 1 = active, label 0 = inactive

> print(dat)
                                   compound  qualitative.label
1  O=C1OC(O)C(C(Cl)Cl)=C1Cl (stereo not drawn)            label 1
2                           ClC(Cl)=C(Cl)Cl            label 0
3                              OCCCc1ccccc1            label 0
4           CCn1cc(C(=O)O)c(=O)c2ccc(C)nc21            label 0
5                                   NC(N)=O            label 1
6          COc1ccc(C(=O)/C(Br)=C\C(=O)O)cc1            label 1
7                          OC[P+](CO)(CO)CO            label 1
8                       C1O[C@@H]1[C@H]1CO1            label 1

---

System: CCRIS mutagenicity, Ames/micronucleus/aberration tests
test-summary: CCRIS mutagenicity studies
measurement-setup: Test System: AMES SALMONELLA TYPHIMURIUM; Strain/Indicator: TA98; Metabolic Activation: NONE; Method: PREINCUBATION
Activity calls are given as the source filed them. The rule behind the calls is not given here.
Classes used: 1.0 = active, 0.0 = inactive

> print(dat)
                                    compound  qualitative.label
 1                                     COC=O                0.0
 2  CC(C)[N+](C)(CCOC(=O)C1c2ccccc2Oc2ccccc21)C(C)C                0.0
 3  CC(=O)c1cc(N)ccc1OCC(O)CNC(C)(C)C (centres undefined)                0.0
 4  Nc1ccc(-c2ccc(N)cc2[N+](=O)[O-])c([N+](=O)[O-])c1                1.0
 5        O=[N+]([O-])c1ccc2c(c1)-c1ccccc1C2                1.0
 6                             Cc1ccc(N)cc1O                0.0
 7  CC(=O)Nc1ccc(Nc2ccc([N+](=O)[O-])cc2)cc1                1.0
 8                           CCN(CC)c1ccccc1                0.0
 9                                      [K+]                0.0
10                     Oc1cc(Cl)c(Cl)c(Cl)c1                0.0
11               Oc1c(Br)c(Br)c(Br)c(Br)c1Br                0.0
12               Oc1ccc(Cl)cc1Cc1cc(Cl)ccc1O                0.0
13            C=CC(C)C#N (centres undefined)                0.0
14       O=C1OC(=O)c2c(Cl)c(Cl)c(Cl)c(Cl)c21                0.0

---

System: CCRIS mutagenicity, Ames/micronucleus/aberration tests
test-summary: CCRIS mutagenicity studies
measurement-setup: Test System: AMES SALMONELLA TYPHIMURIUM; Strain/Indicator: TA1535; Metabolic Activation: NONE; Method: STANDARD PLATE
From the text: The CCRIS database contains chemical records with carcinogenicity, mutagenicity, tumor promotion, and tumor inhibition test results. It was developed by the National Cancer Institute (NCI). Data are derived from studies cited in primary journals, current awareness tools, NCI reports, and other sources. Test results have been reviewed by experts in carcinogenesis and mutagenesis. CCRIS provides historical information from the years 1985 - 2011. It is no longer updated. […]
The source made the active and inactive calls. No rule for the calls is given here.
Classes used: active, inactive

> print(dat)
                                    molecule  qualitative.label
 1                          O=C/C=C/c1ccccc1           inactive
 2  CCCCC(CC)COC(=O)c1ccc(C(=O)O)cc1 (configuration not stated)           inactive
 3                      CNC(=O)CSP(=S)(OC)OC           inactive
 4       CC(=O)Oc1ccccc1C(=O)Oc1ccccc1C(=O)O           inactive
 5                             Cc1ccc(N)cc1O           inactive
 6                             CCCCCCCCCCCCS           inactive
 7  CCN(CC)C(=O)Nc1ccc(OCC(O)CNC(C)(C)C)c(C(C)=O)c1 (configuration not stated)           inactive
 8  Cc1c(-c2ccccc2)oc2c(C(=O)OCCN3CCCCC3)cccc2c1=O           inactive
 9                   NC(=Nc1ccccc1)Nc1ccccc1           inactive
10               N[C@@H](CS)C(=O)OC(=O)NCCCl             active
11  O.[Al+3].[Al+3].[Na+].[Na+].[O-2].[O-2].[O-2].[O-2].[O-2].[O-2].[Si+4]           inactive
12                         C=C(C)C(=O)OCCCCC           inactive
13      Nc1ccc(O)c2c1C(=O)c1c(O)ccc(N)c1C2=O           inactive
14  Clc1ccc(CCC2CO2)cc1 (configuration not stated)             active
15  COc1cccc2c1CC([N+](=O)[O-])c1ccc3c(c1-2)OCO3 (configuration not stated)             active
16  CC(S)C(=O)NCC(=O)O (configuration not stated)           inactive
17                         C=CC(=C)CCC=C(C)C           inactive
18         CCN(CCCl)CCCNc1c2ccccc2nc2ccccc12           inactive
19  COc1cc(NC(C)CCCN)c2ncccc2c1 (configuration not stated)           inactive
20                                CCN1CCN=N1             active
21   CN(C)c1ccc(NS(=O)(=O)c2cccc3cccnc23)cc1           inactive
22                                   ClCCCCl           inactive
23                               C=Cc1ccccn1           inactive
24  CCC[C@]1(O)CC[C@H]2[C@@H]3CC[C@H]4CC(=O)C[C@H](C)[C@]4(C)[C@H]3CC[C@@]21C           inactive
25                            C[15NH][15N]=O             active
26                    Cc1cc(S(=O)(=O)O)ccc1N           inactive
27    COC1OC1(C)C (configuration not stated)             active
28         CC(C)[C@]12CC(=O)[C@H](C)[C@H]1C2           inactive
29  c1ccc(-c2ccc(OCC3CO3)cc2)cc1 (configuration not stated)             active
30     CN1CCN(C2=Nc3ccccc3Oc3ccc(Cl)cc32)CC1           inactive
31                         O=C(O)/C=C\C(=O)O           inactive
32                      FC(F)(F)c1cccc(Cl)c1           inactive
33  CN(C)CCCNc1c2ccccc2nc2c([N+](=O)[O-])cccc12           inactive
34                              OCCCc1ccccc1           inactive
35             C=C(C)C(=O)OCCCCCOC(=O)C(=C)C           inactive
36  CCC1(CC(=O)O)OCCc2c1[nH]c1c(C(C)O)cccc21 (configuration not stated)           inactive
37                             CN(N=O)C(N)=O             active
38                         N#CC1=C(C#N)SCCS1           inactive
39                    CN(C)P(=O)(N(C)C)N(C)C           inactive
40              CS(=O)(=O)n1ncc(Cl)c(Cl)c1=O           inactive
41                            Cc1ccc(N)cc1Cl           inactive
42       CC(=O)N1CCC[C@H]1C(=O)N(CC(=O)O)N=O             active
43  CCCCOC(=O)CC(CC(=O)OCCCC)(OC(C)=O)C(=O)OCCCC           inactive
44  Cc1cc(C(O)c2ncc([N+](=O)[O-])n2C)c(O)c(C(C)(C)C)c1 (configuration not stated)           inactive
45                                 ClC(Br)Br             active
46           N#Cc1cc(I)c(O)c([N+](=O)[O-])c1           inactive
47                Cn1cnc2c1c(=O)[nH]c(=O)n2C           inactive
48  O=c1[nH]c(=O)n([C@H]2C[C@H](O)[C@@H](CO)O2)cc1/C=C/Br           inactive
49                        Clc1nc2ccccc2nc1Cl           inactive
50       ClCCNCCCNc1c2ccccc2nc2c1ccc1cccnc12           inactive
51  OC(Nc1snc2ccccc12)C(Cl)(Cl)Cl (configuration not stated)           inactive
52              CC(=O)Nc1snc2c(Cl)cc(Cl)cc12           inactive
53                       NCCc1c[nH]c2ccccc12           inactive
54               CC(=O)OCc1cocc2c(C=O)ccc1-2           inactive
55  O=C(NC(=O)c1c(F)cccc1F)Nc1cc(Cl)c(Oc2ncc(C(F)(F)F)cc2Cl)c(Cl)c1           inactive
56  NCC1CCC(C(=O)c2ccc(CCC(=O)O)cc2)CC1 (configuration not stated)           inactive
57                           CC(=O)CC(C)(C)O           inactive
